System: 743489-274-T-PDC complex spheroid viability
Protocol Text: Anticancer human tumor 743489-274-T-PDC patient-derived renal cell carcinoma cell line growth inhibition
Condition Description: second compound 0.316 µM; first compound 0.00316 µM; stronger effect = lower value
Please go through the items and note down their viability, T/C.
One number for each entry, in %.

CC(C)CC(NC(=O)C(Cc1ccccc1)NC(=O)c1cnccn1)B(O)O (stereo unspecified) + NC1CC1c1ccc(-c2cccc(O)c2)cc1    111
CC1COCCN1c1cc(-c2ccnn2C)c2ccnc(-c3ccn[nH]3)c2n1 (stereo unspecified) + NC1CCC(NC2CC2c2ccccc2)CC1    126
Nc1ncn(C2CC(O)C(CO)O2)c(=O)n1 (stereo unspecified) + NC1CCC(NC2CC2c2ccccc2)CC1    122
COc1cc(Nc2ncc3c(n2)-c2ccc(Cl)cc2C(c2c(F)cccc2OC)=NC3)ccc1C(=O)O + NC1CCC(NC2CC2c2ccccc2)CC1    100
COc1cc(Nc2ncc3c(n2)-c2ccc(Cl)cc2C(c2c(F)cccc2OC)=NC3)ccc1C(=O)O + NC1CC1c1ccc(-c2cccc(O)c2)cc1    97.7

Please go through the list and note viability, T/C for each compound.
1. O=C(C=Cn1cnc(-c2cc(C(F)(F)F)cc(C(F)(F)F)c2)n1)NNc1cnccn1 + NC1CCC(NC2CC2c2ccccc2)CC1
2. O=C(C=Cn1cnc(-c2cc(C(F)(F)F)cc(C(F)(F)F)c2)n1)NNc1cnccn1 + NC1CC1c1ccc(-c2cccc(O)c2)cc1

95
102

Parameters: items (list). Returns: viability, T/C for each item.
1. CC[C@@]1(O)C(=O)OCc2c1cc1n(c2=O)Cc2cc3c(CN(C)C)c(O)ccc3nc2-1 + NC1CC1c1ccc(-c2cccc(O)c2)cc1
2. CC[C@@]1(O)C(=O)OCc2c1cc1n(c2=O)Cc2cc3c(CN(C)C)c(O)ccc3nc2-1 + NC1CCC(NC2CC2c2ccccc2)CC1
3. Cn1ncnc1C1c2n[nH]c(=O)c3cc(F)cc(c23)NC1c1ccc(F)cc1 (stereo unspecified) + NC1CC1c1ccc(-c2cccc(O)c2)cc1
4. Cn1ncnc1C1c2n[nH]c(=O)c3cc(F)cc(c23)NC1c1ccc(F)cc1 (stereo unspecified) + NC1CCC(NC2CC2c2ccccc2)CC1
5. CC(C)CC(NC(=O)CNC(=O)c1cc(Cl)ccc1Cl)B1OC(=O)CC(CC(=O)O)(C(=O)O)O1 (stereo unspecified) + NC1CCC(NC2CC2c2ccccc2)CC1
6. CC(C)CC(NC(=O)CNC(=O)c1cc(Cl)ccc1Cl)B1OC(=O)CC(CC(=O)O)(C(=O)O)O1 (stereo unspecified) + NC1CC1c1ccc(-c2cccc(O)c2)cc1
7. CC(C)CC(NC(=O)C(Cc1ccccc1)NC(=O)c1cnccn1)B(O)O (stereo unspecified) + NC1CCC(NC2CC2c2ccccc2)CC1
8. CC1COCCN1c1cc(-c2ccnn2C)c2ccnc(-c3ccn[nH]3)c2n1 (stereo unspecified) + NC1CC1c1ccc(-c2cccc(O)c2)cc1

89.7
114
101
93.6
108
94.5
115
111

Name the recorded viability, T/C of the compound listed here: Nc1ncn(C2CC(O)C(CO)O2)c(=O)n1 (stereo unspecified) + NC1CC1c1ccc(-c2cccc(O)c2)cc1
104

====

System: 743489-274-T-PDC complex spheroid viability
Protocol Text: Anticancer human tumor 743489-274-T-PDC cell line growth inhibition;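 further: spheroids exposed to compounds for 7 days before readout; 100% = DMSO vehicle control wells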
Condition Description: second compound 0.1 µM; first compound 0.001 µM; stronger effect = lower value
Endpoint Label: viability, T/C (%)
Answers are plain numbers, in %.

Solved cases below.
Cn1ncnc1C1c2n[nH]c(=O)c3cc(F)cc(c23)NC1c1ccc(F)cc1 (stereo not drawn) + NC1CC1c1ccc(-c2cccc(O)c2)cc1    100
CC(C)CC(NC(=O)C(Cc1ccccc1)NC(=O)c1cnccn1)B(O)O (stereo not drawn) + NC1CCC(NC2CC2c2ccccc2)CC1    100
CC(C)CC(NC(=O)CNC(=O)c1cc(Cl)ccc1Cl)B1OC(=O)CC(CC(=O)O)(C(=O)O)O1 (stereo not drawn) + NC1CC1c1ccc(-c2cccc(O)c2)cc1    114
CC[C@@]1(O)C(=O)OCc2c1cc1n(c2=O)Cc2cc3c(CN(C)C)c(O)ccc3nc2-1 + NC1CCC(NC2CC2c2ccccc2)CC1    103
CC(C)CC(NC(=O)C(Cc1ccccc1)NC(=O)c1cnccn1)B(O)O (stereo not drawn) + NC1CC1c1ccc(-c2cccc(O)c2)cc1    102

Go through the list and state viability, T/C for each entry.
1. Cn1ncnc1C1c2n[nH]c(=O)c3cc(F)cc(c23)NC1c1ccc(F)cc1 (stereo not drawn) + NC1CCC(NC2CC2c2ccccc2)CC1
2. CC(C)CC(NC(=O)CNC(=O)c1cc(Cl)ccc1Cl)B1OC(=O)CC(CC(=O)O)(C(=O)O)O1 (stereo not drawn) + NC1CCC(NC2CC2c2ccccc2)CC1

1. 99.1
2. 105

Recall and state the measured viability, T/C for CC[C@@]1(O)C(=O)OCc2c1cc1n(c2=O)Cc2cc3c(CN(C)C)c(O)ccc3nc2-1 + NC1CC1c1ccc(-c2cccc(O)c2)cc1 .
95.7

====

Could you please report measured viability, T/C for the items listed next?
System: 743489-274-T-PDC complex spheroid viability
Protocol Text: Anticancer human tumor 743489-274-T-PDC cell line growth inhibition;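 further: spheroids exposed to compounds for 7 days before readout; 100% = DMSO vehicle control wells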
Condition Description: second compound 0.1 µM; first compound 0.000949 µM; stronger effect = lower value
One number for each entry, in %.

Example results:
Nc1ncn(C2CC(O)C(CO)S2)c(=O)n1 (stereo unspecified) + NC1CCC(NC2CC2c2ccccc2)CC1    116
Nc1ncn(C2CC(O)C(CO)S2)c(=O)n1 (stereo unspecified) + NC1CC1c1ccc(-c2cccc(O)c2)cc1    102
Nc1ccn(C2OC(CO)C(O)C2(F)F)c(=O)n1 (stereo unspecified) + NC1CCC(NC2CC2c2ccccc2)CC1    77.8
CCc1c2c(nc3ccc(O)cc13)-c1cc3c(c(=O)n1C2)COC(=O)[C@]3(O)CC + NC1CC1c1ccc(-c2cccc(O)c2)cc1    62.5

# per-item lookup of viability, T/C; items listed below
1. CCc1c2c(nc3ccc(O)cc13)-c1cc3c(c(=O)n1C2)COC(=O)[C@]3(O)CC + NC1CCC(NC2CC2c2ccccc2)CC1
2. Nc1ccn(C2OC(CO)C(O)C2(F)F)c(=O)n1 (stereo unspecified) + NC1CC1c1ccc(-c2cccc(O)c2)cc1

1. 86.3
2. 62.5

====

Test system: 743489-274-T-PDC complex spheroid viability
Protocol Text: Anticancer human tumor 743489-274-T-PDC cell line growth inhibition;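 further: spheroids exposed to compounds for 7 days before readout; 100% = DMSO vehicle control wells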
Condition Description: second compound 0.1 µM; first compound 0.0949 µM; stronger effect = lower value
Endpoint Label: viability, T/C (%)
Answers are plain numbers, in %.

As a guide, the following entries are already answered.
Nc1ccn(C2OC(CO)C(O)C2(F)F)c(=O)n1 (configuration not stated) + NC1CC1c1ccc(-c2cccc(O)c2)cc1    63.7
NS(=O)(=O)OCC1CC(n2ccc3c(NC4CCc5ccccc54)ncnc32)CC1O (configuration not stated) + NC1CCC(NC2CC2c2ccccc2)CC1    132
NS(=O)(=O)OCC1CC(n2ccc3c(NC4CCc5ccccc54)ncnc32)CC1O (configuration not stated) + NC1CC1c1ccc(-c2cccc(O)c2)cc1    127
COc1cc(C2c3cc4c(cc3C(OC3OC5COC(C)OC5C(O)C3O)C3COC(=O)C23)OCO4)cc(OC)c1O (configuration not stated) + NC1CC1c1ccc(-c2cccc(O)c2)cc1    98
Nc1ncn(C2CC(O)C(CO)S2)c(=O)n1 (configuration not stated) + NC1CCC(NC2CC2c2ccccc2)CC1    89.6

Hey, quick one: what's viability, T/C for each of these?
1. CCc1c2c(nc3ccc(O)cc13)-c1cc3c(c(=O)n1C2)COC(=O)[C@]3(O)CC + NC1CCC(NC2CC2c2ccccc2)CC1
2. CCN(c1cc(-c2ccc(CN3CCOCC3)cc2)cc(C(=O)NCc2c(C)cc(C)[nH]c2=O)c1C)C1CCOCC1 + NC1CC1c1ccc(-c2cccc(O)c2)cc1

[54.4, 95.6]

====

Test system: 743489-274-T-PDC complex spheroid viability
Protocol Text: Anticancer human tumor 743489-274-T-PDC cell line growth inhibition;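 further: spheroids exposed to compounds for 7 days before readout; 100% = DMSO vehicle control wells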
Condition Description: second compound 0.1 µM; first compound 0.01 µM; stronger effect = lower value
Endpoint Label: viability, T/C (%)
One number for each entry, in %.

Count: 2. Required value per item: viability, T/C.
1. CC(C)CC(NC(=O)CNC(=O)c1cc(Cl)ccc1Cl)B1OC(=O)CC(CC(=O)O)(C(=O)O)O1 (centres undefined) + NC1CCC(NC2CC2c2ccccc2)CC1
2. O=C(C=Cn1cnc(-c2cc(C(F)(F)F)cc(C(F)(F)F)c2)n1)NNc1cnccn1 + NC1CCC(NC2CC2c2ccccc2)CC1

1: 80.4; 2: 112

For every item in the list below, what is its measured viability, T/C?
1. CC(C)CC(NC(=O)CNC(=O)c1cc(Cl)ccc1Cl)B1OC(=O)CC(CC(=O)O)(C(=O)O)O1 (centres undefined) + NC1CC1c1ccc(-c2cccc(O)c2)cc1
2. COc1cc(Nc2ncc3c(n2)-c2ccc(Cl)cc2C(c2c(F)cccc2OC)=NC3)ccc1C(=O)O + NC1CCC(NC2CC2c2ccccc2)CC1

1: 80.7; 2: 104
